The compounds listed here are annotated with their pIC50.
molecular target: CXCR7 (Homo sapiens); assay: CXCR7 β-arrestin recruitment assay in CHO-CXCR7 cells (ProLink/EA β-galactosidase complementation), induced by human SDF-1a; settings: assay buffer, SDF-1a at EC50 concentration
pIC50: −log10 of the molar value.

Recorded pIC50, per entry:
CC(C)(NC(=O)CC1(NC(=O)c2nnc(-c3ccc(F)cc3F)s2)CN(C2CCCCC2)C1)c1cccc(Cl)c1 > 8.30
CC(C)(NC(=O)CC1(NC(=O)c2cc(-c3ccc(F)cc3F)no2)CN([C@H]2CC[C@@](C)(O)CC2)C1)c1cccc(Cl)c1 7.00 to 8.30

// switching to the query compound
Query :: Look at this compound and give its reported pIC50. Cc1cccc(C(C)(C)NC(=O)CC2(NC(=O)c3cc(-c4ccc(F)cc4F)on3)CN([C@H]3CC[C@](C)(O)CC3)C2)n1
Result :: > 8.30

###

biological target: CXCR7 (Homo sapiens, UniProt P25106); assay: CXCR7 β-arrestin recruitment assay in CHO-CXCR7 cells (ProLink/EA β-galactosidase complementation), induced by human SDF-1a; settings: assay buffer, SDF-1a at EC50 concentration
Sequence (P25106 whole entry): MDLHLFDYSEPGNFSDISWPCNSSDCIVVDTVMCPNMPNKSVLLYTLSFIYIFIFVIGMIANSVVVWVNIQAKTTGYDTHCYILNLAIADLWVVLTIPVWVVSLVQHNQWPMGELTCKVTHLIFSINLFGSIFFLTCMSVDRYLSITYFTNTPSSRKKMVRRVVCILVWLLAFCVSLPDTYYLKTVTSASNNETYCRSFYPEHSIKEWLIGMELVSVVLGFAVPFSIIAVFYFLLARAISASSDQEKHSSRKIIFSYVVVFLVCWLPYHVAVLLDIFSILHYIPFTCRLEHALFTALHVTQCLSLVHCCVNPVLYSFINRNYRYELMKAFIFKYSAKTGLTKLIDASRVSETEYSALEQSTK
recorded_endpoint: IC50

Recorded IC50, per entry:
CC(C)(NC(=O)CC1(NC(=O)c2cc(-c3ccc(F)cc3F)on2)CN([C@H]2CC[C@](C)(O)CC2)C1)c1ccccc1Cl < 5 nM
CC(C)(O)CN1CC(CC(=O)NC(C)(C)c2cc(F)cc(F)c2)(NC(=O)c2cc(-c3ccc(F)cc3F)on2)C1 5 to 100 nM
COc1cccc(C(C)(C)NC(=O)CC2(NC(=O)c3cc(-c4ccc(F)cc4F)on3)CN(CC3(C)COC3)C2)c1 100 to 1000 nM

Query :: Look at this compound and give its reported IC50. CC(C)(O)CCN1CC(CC(=O)NC(C)(C)c2cccc(F)c2)(NC(=O)c2cc(-c3ccc(F)cc3F)on2)C1
Result :: 5 to 100 nM

Query :: Record: CC(C)(NC(=O)CC1(NC(=O)c2cc(-c3ccc(F)cc3F)n[nH]2)CN([C@H]2CC[C@](C)(O)CC2)C1)c1cccc(Cl)c1
Result :: 1000 to 20000 nM

Query :: Record: CC(C)(NC(=O)CC1(NC(=O)c2cc(-c3ccc(F)cc3F)on2)CN([C@H]2CC[C@@](C)(O)CC2)C1)c1cccc(C#N)c1
Result :: < 5 nM

###

biological target: CXCR7 (Homo sapiens, UniProt P25106); experiment: CXCR7 β-arrestin recruitment assay in CHO-CXCR7 cells (ProLink/EA β-galactosidase complementation), induced by human SDF-1a; conditions: assay buffer, SDF-1a at EC50 concentration
recorded_endpoint: IC50

Recorded IC50, per entry:
compound	IC50
CC(C)(NC(=O)CC1(NC(=O)c2cc(-c3ccc(F)cc3F)on2)CN([C@H]2CC[C@](C)(O)CC2)C1)c1cccc(C(F)(F)F)c1 [Example 1.199]	5 to 100 nM
CC(C)(NC(=O)CC1(NC(=O)c2cc(-c3ccc(F)cc3F)n[nH]2)CN([C@H]2CC[C@@](C)(O)CC2)C1)c1cccc(Cl)c1 [Example 1.053]	1000 to 20000 nM

Query :: Look at this compound and give its reported IC50. Cc1cc(C(C)(C)NC(=O)CC2(NC(=O)c3nnc(-c4ccc(F)cc4F)s3)CN([C@H]3CC[C@](C)(O)CC3)C2)ccn1 [Example 1.335]
Result :: 5 to 100 nM

Query :: Record: CC(C)(NC(=O)CC1(NC(=O)c2cc(-c3ccc(F)cc3F)on2)CN(CCC(F)(F)F)C1)c1ccccn1 [Example 1.019]
Result :: 100 to 1000 nM

Query :: Record: O=C(CC1(NC(=O)c2cc(-c3ccc(F)cc3F)on2)CN(CC2CC2)C1)NC1(c2ccccc2)CC1 [Example 1.321]
Result :: 100 to 1000 nM

Query :: Record: CN1CCC(N2CC(CC(=O)NC(C)(C)c3ccccn3)(NC(=O)c3cc(-c4ccc(F)cc4F)on3)C2)CC1 [Example 1.280]
Result :: 100 to 1000 nM
